MEASURED_TARGET: High affinity choline transporter 1 (Homo sapiens)
ASSAY_NOTES: inhibitors of human choline transporter CHT (AID 488975)
REPORTED_CONDITIONS: CHT-expressing cells, membrane potential dye, choline response, at 10 µM
Screen size: about 310,000 compounds; about 2,600 (0.84%) were called active.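 Rule for the calls: active = B-score over 3 SD under the library average, and starting fluorescence ratio not unusually high; inactive = the rest.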 Shown is part of a subset that was picked to be rich in actives.
Outcomes: t = active, f = inactive

MOLECULE: Cc1cc(/C=C2/NC(=O)NC2=O)c(C)n1-c1cccnc1
MEASURED_TARGET: High affinity choline transporter 1 (Homo sapiens)
CATEGORY: f
--
MOLECULE: CC(=O)N1CCN(S(=O)(=O)c2cccc(C(=O)NC3CCC(C)CC3)c2)CC1 (stereo unspecified)
MEASURED_TARGET: High affinity choline transporter 1 (Homo sapiens)
CATEGORY: t
--
MOLECULE: CC1(C)S[C@@H]2[C@H](NC(=O)COc3ccccc3)C(=O)N2C1C(=O)OCc1ccccc1 (stereo partly specified)
MEASURED_TARGET: High affinity choline transporter 1 (Homo sapiens)
CATEGORY: f
--
MOLECULE: Cc1ccccc1-n1nnc2c(=O)oc3ccccc3c21
MEASURED_TARGET: High affinity choline transporter 1 (Homo sapiens)
CATEGORY: t
--
MOLECULE: Cc1onc(-c2ccccc2Cl)c1C(=O)N(Cc1ccc(N(C)C)cc1)C(C)C
MEASURED_TARGET: High affinity choline transporter 1 (Homo sapiens)
CATEGORY: f
--
MOLECULE: CCOC(=O)N1CCN(S(=O)(=O)c2ccc(OC)cc2)CC1
MEASURED_TARGET: High affinity choline transporter 1 (Homo sapiens)
CATEGORY: f
--
MOLECULE: Cc1ccc(N2CC(C(=O)N3CCC4(CC3)CC(=O)c3ccccc3O4)CC2=O)cc1C (stereo unspecified)
MEASURED_TARGET: High affinity choline transporter 1 (Homo sapiens)
CATEGORY: f
--
MOLECULE: CCOC(=O)N1CCN(C(=O)c2ccc(S(=O)(=O)Nc3cccc(C(F)(F)F)c3)cc2)CC1
MEASURED_TARGET: High affinity choline transporter 1 (Homo sapiens)
CATEGORY: f
--
MOLECULE: N#CCCN(CCC#N)c1nnc(-c2ccccc2)s1
MEASURED_TARGET: High affinity choline transporter 1 (Homo sapiens)
CATEGORY: f
--
MOLECULE: Cc1ccc(S(=O)(=O)/N=C(/NC(=S)Nc2c(C)n(C)n(-c3ccccc3)c2=O)c2ccccc2)cc1
MEASURED_TARGET: High affinity choline transporter 1 (Homo sapiens)
CATEGORY: t
--
MOLECULE: CC1CC(C)(C)CC2(C1)NC(=O)N(CC(=O)Nc1nccs1)C2=O (stereo unspecified)
MEASURED_TARGET: High affinity choline transporter 1 (Homo sapiens)
CATEGORY: f
--
MOLECULE: O=C(Nc1ccccc1N1CCCC1)c1ccc(F)c(S(=O)(=O)N2CCOCC2)c1
MEASURED_TARGET: High affinity choline transporter 1 (Homo sapiens)
CATEGORY: f
--
MOLECULE: Cc1csc(=O)n1CC(=O)OCC(=O)N(CC(C)C)c1c(N)n(Cc2ccccc2)c(=O)[nH]c1=O
MEASURED_TARGET: High affinity choline transporter 1 (Homo sapiens)
CATEGORY: f
--
MOLECULE: O=C(/C=C/c1ccc(F)cc1)Nc1cccc(S(=O)(=O)Nc2cccc(C(F)(F)F)c2)c1
MEASURED_TARGET: High affinity choline transporter 1 (Homo sapiens)
CATEGORY: f
--
MOLECULE: CNC(=O)NC(=O)C(C)N1CCN(C/C=C/c2ccccc2)CC1 (stereo unspecified)
MEASURED_TARGET: High affinity choline transporter 1 (Homo sapiens)
CATEGORY: t
--
MOLECULE: COc1ccc(N2CCN(C(=O)COC(=O)c3cccc(S(=O)(=O)Nc4ccccc4OC)c3)CC2)cc1
MEASURED_TARGET: High affinity choline transporter 1 (Homo sapiens)
CATEGORY: f
--
MOLECULE: CN(c1cccc(NC(=O)c2ccc(CN3CCc4ccccc4C3)cc2)c1)S(C)(=O)=O
MEASURED_TARGET: High affinity choline transporter 1 (Homo sapiens)
CATEGORY: f
--
MOLECULE: Cc1ccc(NC(=O)CN2CCc3ccccc3C2)cc1C
MEASURED_TARGET: High affinity choline transporter 1 (Homo sapiens)
CATEGORY: f
--
MOLECULE: Cc1ccc(S(=O)(=O)CC(=O)Nc2c(C)n(C)n(-c3ccccc3)c2=O)cc1
MEASURED_TARGET: High affinity choline transporter 1 (Homo sapiens)
CATEGORY: f
--
MOLECULE: CCCCC(=O)Nc1cc(C)c2c(=O)oc3ccccc3c2n1
MEASURED_TARGET: High affinity choline transporter 1 (Homo sapiens)
CATEGORY: f
--
MOLECULE: Cc1cccc(C)c1NC(=O)c1ccc(CN2CCc3ccccc3C2)cc1
MEASURED_TARGET: High affinity choline transporter 1 (Homo sapiens)
CATEGORY: t
